In this section, each of the compounds is paired with its reported TEB disease control rating.
Tested on: Alternara solani
assay_protocol: In vivo fungicidal activity, Tomato early blight (TEB); note: ranges in brackets are in %
test_parameters: 200 ppm spray

- compound: "CC(N=c1c(-c2ccc(F)cc2F)c(Cl)nc2n(C)cnn12)C(F)(F)F (stereo not shown)"
  measurement_target: "Alternara solani"
  TEB disease control rating: "0 (0)"
- compound: "CCn1cnn2c(=NC(C)C(F)(F)F)c(-c3c(F)cc(F)cc3F)c(Cl)nc12 (stereo not shown)"
  measurement_target: "Alternara solani"
  TEB disease control rating: "5 (60-74)"
- compound: "CCCOc1cc(F)c(-c2c(Cl)nc3n(CCC)cnn3c2=NC(C)C(F)(F)F)c(F)c1 (stereo not shown)"
  measurement_target: "Alternara solani"
  TEB disease control rating: "9 (100)"
- compound: "COc1cc(F)c(-c2c(Cl)nc3n(C)cnn3c2=NC(C)C(F)(F)F)c(F)c1 (stereo not shown)"
  measurement_target: "Alternara solani"
  TEB disease control rating: "0 (0)"
